# pIC50 per entry
Target chain: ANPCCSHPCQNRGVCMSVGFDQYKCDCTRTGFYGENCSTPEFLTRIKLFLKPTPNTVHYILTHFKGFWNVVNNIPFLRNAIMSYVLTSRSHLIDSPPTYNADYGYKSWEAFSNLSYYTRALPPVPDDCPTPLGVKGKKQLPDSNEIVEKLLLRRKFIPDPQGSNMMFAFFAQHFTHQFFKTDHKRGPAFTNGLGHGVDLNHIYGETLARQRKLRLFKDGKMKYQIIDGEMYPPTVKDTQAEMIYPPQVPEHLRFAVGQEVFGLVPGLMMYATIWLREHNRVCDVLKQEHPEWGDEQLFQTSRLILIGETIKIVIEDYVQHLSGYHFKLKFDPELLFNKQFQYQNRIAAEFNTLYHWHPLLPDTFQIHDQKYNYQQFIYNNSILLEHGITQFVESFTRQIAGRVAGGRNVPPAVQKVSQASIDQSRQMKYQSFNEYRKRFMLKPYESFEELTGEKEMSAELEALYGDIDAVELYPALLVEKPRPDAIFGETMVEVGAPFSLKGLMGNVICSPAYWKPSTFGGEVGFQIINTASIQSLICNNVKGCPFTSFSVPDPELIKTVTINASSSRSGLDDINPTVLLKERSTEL
pIC50: −log10 of the molar value.

{"COMPOUND": "CCCCn1c(C)c2c(OCC(=O)N/N=C/c3ccccc3)nn(C)c(=O)c2c1C [Compound 5a]", "pIC50": 4.76}
{"COMPOUND": "Cc1c2c(OCC(=O)N/N=C/c3ccccc3)nn(C)c(=O)c2c(C)n1-c1ccccc1 [Compound 5b]", "pIC50": 4.64}
{"COMPOUND": "Cc1c2c(OCC(=O)N/N=C/c3ccccc3)nn(C)c(=O)c2c(C)n1-c1cccc(Cl)c1 [Compound 5c]", "pIC50": 4.63}
{"COMPOUND": "Cc1ccc(/C=N/NC(=O)COc2nn(C)c(=O)c3c(C)n(-c4ccccc4)c(C)c23)cc1 [Compound 7b]", "pIC50": 4.61}
{"COMPOUND": "Cc1ccc(/C=N/NC(=O)COc2nn(C)c(=O)c3c(C)n(-c4cccc(Cl)c4)c(C)c23)cc1 [Compound 7c]", "pIC50": 4.64}
{"COMPOUND": "Cc1c2c(OCC(=O)N/N=C/c3ccccc3O)nn(C)c(=O)c2c(C)n1-c1cccc(Cl)c1 [Compound 6c]", "pIC50": 5.01}
{"COMPOUND": "Cc1c2c(OCC(=O)N/N=C/c3ccccc3O)nn(C)c(=O)c2c(C)n1-c1ccccc1 [Compound 6b]", "pIC50": 4.56}
{"COMPOUND": "CCCCn1c(C)c2c(OCC(=O)N/N=C/c3ccc(C)cc3)nn(C)c(=O)c2c1C [Compound 7a]", "pIC50": 4.79}
{"COMPOUND": "CCCCn1c(C)c2c(OCC(=O)N/N=C/c3ccccc3O)nn(C)c(=O)c2c1C [Compound 6a]", "pIC50": 4.79}

---

# pIC50 per entry
Sequence of the target: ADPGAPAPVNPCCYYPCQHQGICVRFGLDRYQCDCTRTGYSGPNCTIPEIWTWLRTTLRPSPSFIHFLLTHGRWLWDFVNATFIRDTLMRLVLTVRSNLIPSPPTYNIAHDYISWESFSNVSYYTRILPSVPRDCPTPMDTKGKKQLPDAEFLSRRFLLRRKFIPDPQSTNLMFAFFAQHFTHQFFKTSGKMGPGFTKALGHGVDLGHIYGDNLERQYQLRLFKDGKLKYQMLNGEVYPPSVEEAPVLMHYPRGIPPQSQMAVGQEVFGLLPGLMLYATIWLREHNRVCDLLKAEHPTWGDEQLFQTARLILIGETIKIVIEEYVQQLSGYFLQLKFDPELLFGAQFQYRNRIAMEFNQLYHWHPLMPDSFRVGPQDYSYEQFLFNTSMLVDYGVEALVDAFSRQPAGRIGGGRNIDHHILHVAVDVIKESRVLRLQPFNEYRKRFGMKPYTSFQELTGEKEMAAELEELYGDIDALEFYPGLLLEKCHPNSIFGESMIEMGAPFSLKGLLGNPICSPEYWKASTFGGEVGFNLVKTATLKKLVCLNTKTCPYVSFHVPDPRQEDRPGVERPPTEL
pIC50: −log10 of the molar value.

{"COMPOUND": "CCCCn1c(C)c2c(OCC(=O)N/N=C/c3ccccc3O)nn(C)c(=O)c2c1C [Compound 6a]", "pIC50": 4.05}
{"COMPOUND": "Cc1c2c(OCC(=O)N/N=C/c3ccccc3)nn(C)c(=O)c2c(C)n1-c1ccccc1 [Compound 5b]", "pIC50": 4.05}
{"COMPOUND": "Cc1ccc(/C=N/NC(=O)COc2nn(C)c(=O)c3c(C)n(-c4ccccc4)c(C)c23)cc1 [Compound 7b]", "pIC50": 4.04}
